# experimental target: hAR (human androgen receptor, baculovirus/Sf9 generated extracts) (Homo sapiens, UniProt P10275)
# Construct: made in house; host or cells: baculovirus/Sf9 insect cells (crude extract)
# Sequence (P10275 whole entry): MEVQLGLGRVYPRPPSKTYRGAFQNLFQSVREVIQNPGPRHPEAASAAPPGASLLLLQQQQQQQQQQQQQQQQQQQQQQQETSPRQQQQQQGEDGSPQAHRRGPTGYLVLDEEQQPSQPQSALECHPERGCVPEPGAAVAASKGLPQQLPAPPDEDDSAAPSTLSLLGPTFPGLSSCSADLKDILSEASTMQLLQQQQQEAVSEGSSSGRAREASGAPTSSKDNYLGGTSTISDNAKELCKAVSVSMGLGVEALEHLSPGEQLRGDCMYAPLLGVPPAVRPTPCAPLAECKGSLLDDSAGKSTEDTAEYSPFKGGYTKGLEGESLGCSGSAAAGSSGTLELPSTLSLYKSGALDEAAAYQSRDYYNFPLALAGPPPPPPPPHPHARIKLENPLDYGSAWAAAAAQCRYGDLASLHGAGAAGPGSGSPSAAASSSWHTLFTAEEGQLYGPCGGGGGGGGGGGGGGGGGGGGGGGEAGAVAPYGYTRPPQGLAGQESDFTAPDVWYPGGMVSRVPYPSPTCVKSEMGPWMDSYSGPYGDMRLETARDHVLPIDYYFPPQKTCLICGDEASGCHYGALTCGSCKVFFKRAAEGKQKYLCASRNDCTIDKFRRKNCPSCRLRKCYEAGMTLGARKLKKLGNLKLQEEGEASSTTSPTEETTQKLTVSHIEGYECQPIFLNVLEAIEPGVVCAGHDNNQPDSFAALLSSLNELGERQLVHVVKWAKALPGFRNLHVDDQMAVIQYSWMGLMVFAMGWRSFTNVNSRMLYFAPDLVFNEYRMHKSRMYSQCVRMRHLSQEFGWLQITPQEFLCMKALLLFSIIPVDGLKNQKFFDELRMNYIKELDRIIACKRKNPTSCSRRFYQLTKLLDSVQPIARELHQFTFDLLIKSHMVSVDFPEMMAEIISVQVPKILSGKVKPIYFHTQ
# experiment: AR Binding Assay (competitive binding with 3H-DHT tracer)
# measurement context: hAR extract, 1 nM 3H-DHT, one hour at 4° C.; mean of multiple tests; read-out: AR Binding IC50
measured endpoint: log10(IC50) (log10 of the value in nM)
A value of 2 here means IC50 of 100 in nM, since values are log10.

Known results for compounds:
[[record]]
compound = "COc1cccc(C(C)Oc2ccc(C#N)c(C(F)(F)F)c2)n1 (stereo not drawn)"
measured = 2.08

[[record]]
compound = "COc1cccc(C(C)Oc2ccc(C#N)c(C(F)(F)F)c2)c1 (stereo not drawn)"
measured = 1.89

[[record]]
compound = "CC(Oc1ccc(C#N)c(C(F)(F)F)c1)c1cncc(O)c1 (single isomer, unassigned; (+)) [Example 74]"
measured = 1.54

[[record]]
compound = "COc1ccccc1C(C)Oc1ccc(C#N)c(C(F)(F)F)c1 (stereo not drawn)"
measured = 2.49

[[record]]
compound = "CCCC(Oc1ccc(C#N)c(C(F)(F)F)c1)c1cccc(C)n1 (stereo not drawn)"
measured = 2.52

[[record]]
compound = "CC(Oc1ccc(C#N)c(C(F)(F)F)c1)c1ccc(Cl)cc1 (stereo not drawn)"
measured = 2.49

[[record]]
compound = "N#Cc1ccc(OC(Cc2ccccc2)c2cccnc2)cc1C(F)(F)F (stereo not drawn)"
measured = 2.06

[[record]]
compound = "CCC(Oc1ccc(C#N)c(C(F)(F)F)c1)c1cccc(C)n1 (stereo not drawn)"
measured = 2.68


# next compound below
Exercise: Tell me the measured log10(IC50) of "CCOc1ccccc1COc1ccc(C#N)c(C(F)(F)F)c1" , please.
Key: 2.10
